- Assay Overview: Blood–brain barrier permeation assay (PAMPA)
- Applied Conditions: BBB permeability class from Pe
Observation Type: PAMPA Prediction

* Cn1c(=O)c2c(ncn2C)n(C)c1=O [Caffeine, reference compound] | CNS -

----------
Please provide measured Papp for the entries that follow.
- Test system: blood-brain barrier (passive diffusion)
- Assay Overview: in vitro
- Applied Conditions: PAMPA, pH 7.4
Express the result in ×10⁻⁶ cm/s but write the number alone.

Ask | Please give the measured Papp for this molecule: C#CCNCCc1c[nH]c2ccc(OC(=O)C=Cc3ccccc3)cc12
Reply | 5.08

Ask | Please give the measured Papp for this molecule: C#CCN(CC#C)CCc1c[nH]c2ccc(OC)cc12
Reply | 20.3

Ask | Please give the measured Papp for this molecule: C#CCNCCc1c[nH]c2ccc(OC)cc12
Reply | 12.3
